# protocol_description: Toxicity in sheep erythrocytes assessed as induction of hemolysis
# Format: cell-based, Ovis aries, Erythrocyte
# test_parameters: read-out: HD50 (the source's name)
property: HC50

-- ask Which HC50 value is on record for C=C(C)[C@@H]1CC[C@]2(C(=O)O[C@@H]3O[C@@H](C)[C@H](O)[C@@H](O)[C@H]3O)CC[C@]3(C)[C@H](CC[C@@H]4[C@@]5(C)CC[C@H](O[C@@H]6O[C@@H](C)[C@H](O)[C@@H](O)[C@H]6O)C(C)(C)[C@@H]5CC[C@]43C)[C@@H]12 ?
-- reply 85 µM

-- ask Given the entry C=C(C)[C@@H]1CC[C@]2(C(=O)O)CC[C@]3(C)[C@H](CC[C@@H]4[C@@]5(C)CC[C@H](O)C(C)(C)[C@@H]5CC[C@]43C)[C@@H]12 [BETULINIC ACID] , report its measured HC50.
-- reply > 100 µM

-- ask # query: HC50 of entry C=C(C)[C@@H]1CC[C@]2(C(=O)O[C@@H]3O[C@H](CO)[C@@H](O)[C@H](O)[C@H]3O)CC[C@]3(C)[C@H](CC[C@@H]4[C@@]5(C)CC[C@H](O[C@@H]6OC[C@H](O)[C@H](O)[C@H]6O[C@@H]6O[C@@H](C)[C@H](O)[C@@H](O)[C@H]6O)C(C)(C)[C@@H]5CC[C@]43C)[C@@H]12
-- reply > 100 µM

-- ask HC50 lookup needed for C[C@@H]1O[C@@H](O[C@H]2[C@H](O[C@H]3CC[C@@]4(C)[C@@H](CC[C@]5(C)[C@@H]4CC=C4[C@@H]6CC(C)(C)CC[C@]6(C(=O)O)CC[C@]45C)[C@]3(C)CO)OC[C@H](O[C@@H]3O[C@H](CO)[C@@H](O)[C@H](O)[C@H]3O)[C@@H]2O)[C@H](O)[C@H](O)[C@H]1O [HEDERACOLCHISIDE A] , thanks.
-- reply 22 µM

-- ask Find the recorded HC50 belonging to C=C(C)[C@@H]1CC[C@]2(CO)CC[C@]3(C)[C@H](CC[C@@H]4[C@@]5(C)CC[C@H](O[C@@H]6O[C@@H](CO)[C@H](O)[C@H]6O)C(C)(C)[C@@H]5CC[C@]43C)[C@@H]12 and report it.
-- reply > 100 µM

-- ask // query HC50 value for entry C[C@@H]1O[C@@H](O[C@H]2[C@H](O[C@H]3CC[C@@]4(C)[C@@H](CC[C@]5(C)[C@@H]4CC=C4[C@@H]6CC(C)(C)CC[C@]6(C(=O)O)CC[C@]45C)[C@]3(C)CO)OC[C@H](O)[C@@H]2O)[C@H](O)[C@H](O)[C@H]1O [ALPHA-HEDERIN]
-- reply 10 µM

-- ask For C=C(C)[C@@H]1CC[C@]2(C(=O)O)CC[C@]3(C)[C@H](CC[C@@H]4[C@@]5(C)CC[C@H](O[C@@H]6OC[C@@H](O)[C@H](O)[C@H]6O)C(C)(C)[C@@H]5CC[C@]43C)[C@@H]12 , what is its reported HC50?
-- reply > 100 µM

-- ask Sample C=C(C)[C@@H]1CC[C@]2(C(=O)O)CC[C@]3(C)[C@H](CC[C@@H]4[C@@]5(C)CC[C@H](O[C@H]6O[C@H](CO)[C@@H](O)[C@H](O)[C@@H]6O)C(C)(C)[C@@H]5CC[C@]43C)[C@@H]12 — what was its HC50?
-- reply > 100 µM

-- ask Which value of HC50 has been reported for C=C(C)[C@@H]1CC[C@]2(C(=O)O[C@@H]3O[C@H](CO)[C@@H](O)[C@H](O)[C@H]3O)CC[C@]3(C)[C@H](CC[C@@H]4[C@@]5(C)CC[C@H](O)C(C)(C)[C@@H]5CC[C@]43C)[C@@H]12 in the records?
-- reply > 100 µM

-- ask Entry C=C(C)[C@@H]1CC[C@]2(C(=O)O)CC[C@]3(C)[C@H](CC[C@@H]4[C@@]5(C)CC[C@H](O[C@@H]6O[C@@H](C)[C@H](O)[C@@H](O)[C@H]6O)C(C)(C)[C@@H]5CC[C@]43C)[C@@H]12 has what HC50?
-- reply > 100 µM

-- ask Look at this compound and give its reported HC50. C=C(C)[C@@H]1CC[C@]2(C(=O)O[C@@H]3O[C@H](CO)[C@@H](O)[C@H](O)[C@H]3O)CC[C@]3(C)[C@H](CC[C@@H]4[C@@]5(C)CC[C@H](O[C@@H]6OC[C@H](O)[C@H](O)[C@H]6O)C(C)(C)[C@@H]5CC[C@]43C)[C@@H]12
-- reply > 100 µM

-- ask Fill in the blank: the reported HC50 of CC1(C)CC[C@]2(C(=O)O)CC[C@]3(C)C(=CC[C@@H]4[C@@]5(C)CC[C@H](O[C@@H]6OC[C@H](O)[C@H](O)[C@H]6O)[C@@](C)(CO)[C@@H]5CC[C@]43C)[C@@H]2C1 is ____.
-- reply 12 µM

-- ask Look up HC50: CC1(C)CC[C@]2(C(=O)O)CC[C@]3(C)C(=CC[C@@H]4[C@@]5(C)CC[C@H](O)[C@@](C)(CO)[C@@H]5CC[C@]43C)[C@@H]2C1 [HEDERAGENIN]
-- reply > 100 µM

-- ask Query (compound): C[C@@H]1O[C@@H](O[C@H]2[C@H](O[C@H]3CC[C@]4(C)[C@H]5CC=C6[C@@H]7CC(C)(C)CC[C@]7(C(=O)O)CC[C@@]6(C)[C@]5(C)CC[C@H]4C3(C)C)OC[C@H](O)[C@@H]2O)[C@H](O)[C@H](O)[C@H]1O ; field requested: HC50
-- reply 2 µM

-- ask Report HC50 for C=C(C)[C@@H]1CC[C@]2(CO)CC[C@]3(C)[C@H](CC[C@@H]4[C@@]5(C)CC[C@H](O[C@@H]6O[C@H](CO)[C@@H](O)[C@H](O)[C@H]6O)C(C)(C)[C@@H]5CC[C@]43C)[C@@H]12 please.
-- reply > 100 µM

###

# protocol_description: Cell membrane permeabilization in human WS1 cells assessed as drug level causing decrease in calcein fluorescence
# Type: ADME, cell-based
property: IC50

-- ask For C=C(C)[C@@H]1CC[C@]2(C(=O)O[C@@H]3O[C@H](CO)[C@@H](O)[C@H](O)[C@H]3O)CC[C@]3(C)[C@H](CC[C@@H]4[C@@]5(C)CC[C@H](O)C(C)(C)[C@@H]5CC[C@]43C)[C@@H]12 , what is its reported IC50?
-- reply > 200 µM

-- ask Fill in: IC50 of C=C(C)[C@@H]1CC[C@]2(CO)CC[C@]3(C)[C@H](CC[C@@H]4[C@@]5(C)CC[C@H](O[C@@H]6O[C@@H](CO)[C@H](O)[C@H]6O)C(C)(C)[C@@H]5CC[C@]43C)[C@@H]12 is ___
-- reply > 200 µM

-- ask Fill blank: measured IC50 of the molecule C=C(C)[C@@H]1CC[C@]2(C(=O)O)CC[C@]3(C)[C@H](CC[C@@H]4[C@@]5(C)CC[C@H](O[C@@H]6O[C@H](CO)[C@H](O)[C@H](O)[C@H]6O)C(C)(C)[C@@H]5CC[C@]43C)[C@@H]12 is ____.
-- reply > 200 µM

-- ask Find the recorded IC50 belonging to C=C(C)[C@@H]1CC[C@]2(C(=O)O[C@@H]3O[C@@H](C)[C@H](O)[C@@H](O)[C@H]3O)CC[C@]3(C)[C@H](CC[C@@H]4[C@@]5(C)CC[C@H](O[C@@H]6O[C@@H](C)[C@H](O)[C@@H](O)[C@H]6O)C(C)(C)[C@@H]5CC[C@]43C)[C@@H]12 and report it.
-- reply > 200 µM

-- ask What value of measured IC50 is listed for C=C(C)[C@@H]1CC[C@]2(C(=O)O[C@@H]3O[C@H](CO)[C@@H](O)[C@H](O)[C@H]3O)CC[C@]3(C)[C@H](CC[C@@H]4[C@@]5(C)CC[C@H](O[C@@H]6OC[C@H](O)[C@H](O)[C@H]6O)C(C)(C)[C@@H]5CC[C@]43C)[C@@H]12 ?
-- reply > 200 µM

-- ask Recorded IC50 for C=C(C)[C@@H]1CC[C@]2(CO[C@@H]3O[C@H](CO)[C@@H](O)[C@H](O)[C@H]3O)CC[C@]3(C)[C@H](CC[C@@H]4[C@@]5(C)CC[C@H](O[C@@H]6O[C@H](CO)[C@@H](O)[C@H](O)[C@H]6O)C(C)(C)[C@@H]5CC[C@]43C)[C@@H]12 , please?
-- reply > 200 µM

-- ask Field request: IC50 | item: CC1(C)CC[C@]2(C(=O)O)CC[C@]3(C)C(=CC[C@@H]4[C@@]5(C)CC[C@H](O[C@@H]6OC[C@H](O)[C@H](O)[C@H]6O)[C@@](C)(CO)[C@@H]5CC[C@]43C)[C@@H]2C1
-- reply 51 µM

-- ask Look at this molecule and give its reported IC50. C=C(C)[C@@H]1CC[C@]2(C(=O)O[C@@H]3O[C@H](CO)[C@@H](O)[C@H](O)[C@H]3O)CC[C@]3(C)[C@H](CC[C@@H]4[C@@]5(C)CC[C@H](O[C@@H]6OC[C@H](O)[C@H](O)[C@H]6O[C@@H]6O[C@@H](C)[C@H](O)[C@@H](O)[C@H]6O)C(C)(C)[C@@H]5CC[C@]43C)[C@@H]12
-- reply > 200 µM

-- ask Requested field: IC50. Item: C=C(C)[C@@H]1CC[C@]2(CO)CC[C@]3(C)[C@H](CC[C@@H]4[C@@]5(C)CC[C@H](O[C@@H]6OC[C@H](O)[C@H](O)[C@H]6O[C@@H]6O[C@@H](C)[C@H](O)[C@@H](O)[C@H]6O)C(C)(C)[C@@H]5CC[C@]43C)[C@@H]12
-- reply > 200 µM

-- ask What value of IC50 has been reported for the following molecule? C=C(C)[C@@H]1CC[C@]2(CO[C@@H]3O[C@H](CO)[C@@H](O)[C@H](O)[C@H]3O)CC[C@]3(C)[C@H](CC[C@@H]4[C@@]5(C)CC[C@H](O[C@@H]6O[C@@H](C)[C@H](O)[C@@H](O)[C@H]6O)C(C)(C)[C@@H]5CC[C@]43C)[C@@H]12
-- reply > 200 µM

-- ask Data request, read-out IC50, for C[C@@H]1O[C@@H](O[C@H]2[C@H](O[C@H]3CC[C@@]4(C)[C@@H](CC[C@]5(C)[C@@H]4CC=C4[C@@H]6CC(C)(C)CC[C@]6(C(=O)O)CC[C@]45C)[C@]3(C)CO)OC[C@H](O)[C@@H]2O)[C@H](O)[C@H](O)[C@H]1O
-- reply 24 µM

-- ask For C=C(C)[C@@H]1CC[C@]2(C(=O)O)CC[C@]3(C)[C@H](CC[C@@H]4[C@@]5(C)CC[C@H](O[C@@H]6O[C@H](CO)[C@@H](O)[C@H](O)[C@H]6O)C(C)(C)[C@@H]5CC[C@]43C)[C@@H]12 , what is its reported IC50?
-- reply > 200 µM

-- ask # IC50 lookup, item C=C(C)[C@@H]1CC[C@]2(CO)CC[C@]3(C)[C@H](CC[C@@H]4[C@@]5(C)CC[C@H](O)C(C)(C)[C@@H]5CC[C@]43C)[C@@H]12
-- reply > 200 µM

-- ask Looking for the measured IC50 of CC1(C)CC[C@]2(C(=O)O)CC[C@]3(C)C(=CC[C@@H]4[C@@]5(C)CC[C@H](O)C(C)(C)[C@@H]5CC[C@]43C)[C@@H]2C1 , can you help?
-- reply > 200 µM

-- ask Fill in the blank: the reported IC50 of C=C(C)[C@@H]1CC[C@]2(CO)CC[C@]3(C)[C@H](CC[C@@H]4[C@@]5(C)CC[C@H](O[C@@H]6OC[C@H](O)[C@H](O)[C@H]6O)C(C)(C)[C@@H]5CC[C@]43C)[C@@H]12 is ____.
-- reply > 200 µM

-- ask Consider the molecule C=C(C)[C@@H]1CC[C@]2(C(=O)O)CC[C@]3(C)[C@H](CC[C@@H]4[C@@]5(C)CC[C@H](O)C(C)(C)[C@@H]5CC[C@]43C)[C@@H]12 and give its measured IC50.
-- reply > 200 µM
